# Test system: HT-29
# Test name: Cytotoxicity against human HT-29 cells assessed as reduction in cell viability measured after 48 hrs by SRB assay
# Format: functional, cell-based
# Assay setup: HT-29, 48 h
Measurement name: pIC50
A value of pIC50 is the negative decimal logarithm of a concentration given in moles per litre.

Q: Which pIC50 is listed for O=C(CCCSSCCOCCOCCOc1cc(O)c(C(=O)CCc2ccc(O)cc2)c(O)c1)OCn1cc(F)c(=O)[nH]c1=O ?
Result: 4.71

Q: Which pIC50 is listed for O=C(CCCSSCCOCCOCCOc1cc(O)c(C(=O)CCc2ccc(O)cc2)c(O[C@@H]2O[C@H](CO)[C@@H](O)[C@H](O)[C@H]2O)c1)OCn1cc(F)c(=O)[nH]c1=O ?
Result: 4.22

Q: Which pIC50 is listed for O=C(CCCc1cn(CCOCCOCCOc2cc(O)c(C(=O)CCc3ccc(O)cc3)c(O)c2)nn1)OCn1cc(F)c(=O)[nH]c1=O ?
Result: 4.07

Q: Which pIC50 is listed for O=C(CCCCCN1C(=O)CC(SCCOCCOCCOc2cc(O)c(C(=O)CCc3ccc(O)cc3)c(O)c2)C1=O)OCn1cc(F)c(=O)[nH]c1=O (stereo not drawn) ?
Result: 4.36

Q: Which pIC50 is listed for O=C(CCc1ccc(O)cc1)c1c(O)cc(OCCOCCOCCS)cc1O ?
Result: 4.54

---

# Test system: HT-29
# Test name: Cytotoxicity against human HT-29 cells assessed as reduction in cell viability measured after 48 hrs in presence of 5 mM GSH by SRB assay
# Assay type: functional, cell-based
# Assay setup: HT-29, 48 h
Lab note: anything with IC50 below 20 µM is marked Condition met; values at 20 µM or higher are marked Condition not met.

Q: Hello, is IC50 of the following compound strictly smaller than 20 µM? O=C(CCCSSCCOCCOCCOc1cc(O)c(C(=O)CCc2ccc(O)cc2)c(O)c1)OCn1cc(F)c(=O)[nH]c1=O
Result: Condition met

Q: Hello, is IC50 of the following compound strictly smaller than 20 µM? O=C(CCc1ccc(O)cc1)c1c(O)cc(OCCOCCOCCS)cc1O[C@@H]1O[C@H](CO)[C@@H](O)[C@H](O)[C@H]1O
Result: Condition not met

Q: Hello, is IC50 of the following compound strictly smaller than 20 µM? O=C(CCCCCN1C(=O)CC(SCCOCCOCCOc2cc(O)c(C(=O)CCc3ccc(O)cc3)c(O[C@@H]3O[C@H](CO)[C@@H](O)[C@H](O)[C@H]3O)c2)C1=O)OCn1cc(F)c(=O)[nH]c1=O (stereo partly specified)
Result: Condition not met

Q: Hello, is IC50 of the following compound strictly smaller than 20 µM? O=C(CCCCCN1C(=O)CC(SCCOCCOCCOc2cc(O)c(C(=O)CCc3ccc(O)cc3)c(O)c2)C1=O)OCn1cc(F)c(=O)[nH]c1=O (stereo unspecified)
Result: Condition not met

Q: Hello, is IC50 of the following compound strictly smaller than 20 µM? O=C(CCc1ccc(O)cc1)c1c(O)cc(OCCOCCOCCS)cc1O
Result: Condition not met

Q: Hello, is IC50 of the following compound strictly smaller than 20 µM? O=C(CCCSSCCOCCOCCOc1cc(O)c(C(=O)CCc2ccc(O)cc2)c(O[C@@H]2O[C@H](CO)[C@@H](O)[C@H](O)[C@H]2O)c1)OCn1cc(F)c(=O)[nH]c1=O
Result: Condition met

Data origin, for the record: ChEMBL document CHEMBL5030512
